Would you mind telling me the reported pIC50 of each entry?
System: GC3/MTK-
EXPERIMENTAL DETAILS: Compound is screened for cell growth inhibition against GC3/MTK-cell line, a human thymidine kinase deficient adenocarcinoma line
Format: functional, cell-based
When answering, recall that pIC50 equals minus log10 of the concentration in mol/L, and write that number alone.

Query block: Given the molecule CNC1=Nc2ccc(N(C)Cc3ccnnc3)c3cccc1c23 , write its reported pIC50.
Result block: 4.59

Query block: Given the molecule CN(Cc1ccnnc1)c1ccc2c3c(cccc13)C(N)=N2 , write its reported pIC50.
Result block: 5.30

Query block: Given the molecule CN(Cc1ccnc(CO)c1)c1ccc2c3c(cccc13)C(N)=N2 , write its reported pIC50.
Result block: 4.96

Query block: Given the molecule CNC1=Nc2ccc(N(C)Cc3ccnnc3)c3c(C)ccc1c23 , write its reported pIC50.
Result block: 5.00

Query block: Given the molecule CN(Cc1ccncc1)c1ccc2c3c(cccc13)C(N)=N2 , write its reported pIC50.
Result block: 5.32

Query block: Given the molecule CNC1=Nc2ccc(N(C)Cc3ccncc3)c3c(C)ccc1c23 , write its reported pIC50.
Result block: 5.44

Query block: Given the molecule Cc1ccc2c3c(ccc(N(C)Cc4ccnnc4)c13)N=C2N , write its reported pIC50.
Result block: 5.68

Query block: Given the molecule Cc1ccc2c3c(ccc(N(C)Cc4ccncc4)c13)N=C2N , write its reported pIC50.
Result block: 5.96

Query block: Given the molecule CCc1cc(CN(C)c2ccc3c4c(cccc24)C(N)=N3)ccn1 , write its reported pIC50.
Result block: 5.19

Query block: Given the molecule CN(Cc1ccnc(Sc2ccccc2)c1)c1ccc2c3c(cccc13)C(N)=N2 , write its reported pIC50.
Result block: 4.94

Query block: Given the molecule CNC1=Nc2ccc(N(C)Cc3ccncc3)c3cccc1c23 , write its reported pIC50.
Result block: 4.64

// data source = ChEMBL document CHEMBL1128577
